Just for reference, paper PMC12198407 is where these values come from.

procedureDetails: Metabolite profiling in plasma, bile, urine, feces
Assay type: in vivo, SD rats
measurementConditions: males, 0 to 168 hours
Parameter: amount in feces, % of administered dose. Scope: all listed entries.
assayReadout: amount in feces, % of administered dose

* CC(=O)Nc1ccc(-c2nc(N3CCOCC3)c3nc(CN(C)c4ncc(C(=O)O)cn4)n(C)c3n2)cc1 [M517] | 1.27% to 6.00
* CONC(=O)c1cnc(N(C)Cc2nc3c(N4CCOCC4)nc(-c4ccc(NC(C)=O)cc4)nc3n2C)nc1 [M546] | 1.27% to 6.00
* CN(Cc1nc2c(N3CCOCC3)nc(-c3ccc(N)cc3)nc2n1C)c1ncc(C(N)=O)cn1 [M474] | 1.27% to 6.00
